Tested on: NCI-H460
experimental_details: Antiproliferative activity against human NCI-H460 cells after 48 hrs by sulforhodamine B assay
Assay type: functional
run_parameters: NCI-H460, 48 h
observation_type: GI50 (µg/mL)
Numbers only, in µg/mL.

# count of solved cases: 2
CCCCCCCC/C=C\CCCCCCCC(=O)NCCO [OLEOYLETHANOLAMIDE] : 36.5
CCCCCCCCCCCCCCCC(=O)N1CCOCC1 : 34.1

Query: Name the recorded GI50 for `CCCCCCCC/C=C\CCCCCCCC(=O)N1CCOCC1` .
Result: 7.9

----------
Tested on: MCF7
experimental_details: Antiproliferative activity against human MCF7 cells assessed as tumor growth inhibition after 48 hrs by sulforhodamine B assay
Format: functional
run_parameters: MCF7, 48 h
Note: every record was labeled by where its TGI sits among bottom: < 40 µg/mL; middle: ≥ 40 µg/mL and < 80 µg/mL; top: ≥ 80 µg/mL

Here's what some known entries look like.
CCCCCC[C@@H](O)C/C=C\CCCCCCCC(=O)NCc1ccccc1 : top
CCCCCCCC/C=C\CCCCCCCC(=O)NCc1ccccc1 : top
CCCCCCCCCCCCCCCC(=O)NCCO [PALMIDROL] : top
CCCCCC[C@@H](O)C/C=C\CCCCCCCC(=O)N[C@@H](C)c1ccccc1 : top
CCCCCCCCCCCCCCCC(=O)NCc1ccccc1 : top

Query: Category of `CCCCCC[C@@H](O)C/C=C\CCCCCCCC(=O)N1CCOCC1` :
Result: top

Query: Next: `CCCCCC[C@@H](O)C/C=C\CCCCCCCC(=O)N1CCCC1`
Result: bottom

Query: Next: `CCCCCCCC/C=C\CCCCCCCC(=O)N[C@@H](C)c1ccccc1`
Result: middle

Query: Next: `CCCCCCCCCCCCCCCCCC(=O)N[C@H](C)c1ccccc1`
Result: top

Query: Next: COc1cccc2c1C(=O)c1c(O)c3c(c(O)c1C2=O)C[C@@](O)(C(=O)CO)C[C@@H]3O[C@H]1C[C@H](N)[C@H](O)[C@H](C)O1 [DOXORUBICIN]
Result: bottom

Query: Next: `CCCCC/C=C\C/C=C\CCCCCCCC(=O)N1CCCCC1`
Result: middle
